Hey, just so you know, these numbers are from patent US20240174763A1.

Target: T1, recombinant human CD73 protein (human, UniProt P21589 27-547, limits assumed)
T1 construct: Bought recombinant protein; the assays only say recombinant human CD73; also called rhCD73; recombinant hCD73 protein
T1 sequence (looked up): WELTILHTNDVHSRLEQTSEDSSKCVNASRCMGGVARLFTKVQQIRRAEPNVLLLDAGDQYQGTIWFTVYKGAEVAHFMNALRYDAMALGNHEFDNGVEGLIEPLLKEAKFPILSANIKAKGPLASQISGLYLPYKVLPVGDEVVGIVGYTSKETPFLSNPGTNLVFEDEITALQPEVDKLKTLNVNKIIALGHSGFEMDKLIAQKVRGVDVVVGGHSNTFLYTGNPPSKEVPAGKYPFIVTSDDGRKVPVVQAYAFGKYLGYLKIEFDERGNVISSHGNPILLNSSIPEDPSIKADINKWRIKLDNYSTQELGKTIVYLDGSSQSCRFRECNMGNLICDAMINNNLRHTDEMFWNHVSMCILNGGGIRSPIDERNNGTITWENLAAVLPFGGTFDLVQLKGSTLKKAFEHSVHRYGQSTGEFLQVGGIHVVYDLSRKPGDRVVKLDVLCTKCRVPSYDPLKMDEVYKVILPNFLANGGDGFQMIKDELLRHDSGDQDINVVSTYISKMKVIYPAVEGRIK
Assay: ELISA, recombinant human CD73 coated at 3 ug/mL
test_readout: EC50 (read off the curve)

The following binders have reported results that may help.
>  <binder>
humanized CQ137 monoclonal antibody (137-4) (antibody, V domains shown) VH: QVQLVQSGAEVKKPGSSVKVSCKASGYSFTGYYIHWVRQAPGQGLEWMGRINPYNGATTYNQNFKDRVTITVDKSTSTAYMELSSLRSEDTAVYYCARFHYGAVDYWGQGTLVTVSS VL: DIQMTQSPSSLSASVGDRVTITCKASQDINTYLTWYQQKPGKAPKTLIYRANILVDGVPSRFSGSGSGTDFTLTISSLQPEDFATYYCLQYEEFPLTFGGGTKVEIKR

>  <EC50 (read off the curve)>
~0.3 µg/mL

$$$$
>  <binder>
humanized CQ137 monoclonal antibody (137-6) (antibody, V domains shown) VH: QVQLVQSGAEVKKPGSSVKVSCKASGYSFTGYYIHWVRQAPGQGLEWMGRINPYNGATTYNQNFKDRVTITVDKSTSTAYMELSSLRSEDTAVYYCARFHYGAPEYWGQGTLVTVSS VL: DIQMTQSPSSLSASVGDRVTITCKASQDINTYLTWYQQKPGKAPKTLIYRANILVDGVPSRFSGSGSGTDFTLTISSLQPEDFATYYCLQYAEFPLTFGGGTKVEIKR

>  <EC50 (read off the curve)>
~0.3 µg/mL

$$$$
>  <binder>
humanized CQ137 monoclonal antibody (137-9) (antibody, V domains shown) VH: QVQLVQSGAEVKKPGSSVKVSCKASGYSFTGYYIHWVRQAPGQGLEWMGRINPYNGATTYNQNFKDRVTITVDKSTSTAYMELSSLRSEDTAVYYCARFHYGAPDLWGQGTLVTVSS VL: DIQMTQSPSSLSASVGDRVTITCKASQDINTYLTWYQQKPGKAPKTLIYRANILVDGVPSRFSGSGSGTDFTLTISSLQPEDFATYYCLQYDAFPLTFGGGTKVEIKR

>  <EC50 (read off the curve)>
~0.4 µg/mL

$$$$

Here's the next entry for you.
What value of measured EC50 (read off the curve) is listed for humanized CQ137 monoclonal antibody (137-8) (antibody, V domains shown) VH: QVQLVQSGAEVKKPGSSVKVSCKASGYSFTGYYIHWVRQAPGQGLEWMGRINPYNGATTYNQNFKDRVTITVDKSTSTAYMELSSLRSEDTAVYYCARFHYGAPDFWGQGTLVTVSS VL: DIQMTQSPSSLSASVGDRVTITCKASQDINTYLTWYQQKPGKAPKTLIYRANILVDGVPSRFSGSGSGTDFTLTISSLQPEDFATYYCLQYDQFPLTFGGGTKVEIKR ? ~0.3 µg/mL
